Origin of the recorded values: patent US11286268B1

# System tested: recombinant eIF4E (Homo sapiens (Human), UniProt P06730)
# Sequence (P06730 whole entry): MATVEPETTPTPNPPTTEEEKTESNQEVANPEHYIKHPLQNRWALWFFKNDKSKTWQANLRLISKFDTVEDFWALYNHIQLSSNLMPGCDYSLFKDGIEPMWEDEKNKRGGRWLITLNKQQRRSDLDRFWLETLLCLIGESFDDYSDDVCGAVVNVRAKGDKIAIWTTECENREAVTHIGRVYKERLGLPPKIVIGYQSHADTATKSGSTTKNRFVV
# Experiment: Fluorescence polarization competition assay for eIF4E binding potency
# Experimental setup: inhibition of eIF4E/EDA-m7GDP-ATTO-550 binding; calculated IC50 values, Table 4B; read-out: IC50
Experimental endpoint: pIC50
pIC50 here: minus log base 10 of the concentration, concentration in moles per litre.

Examples with answers:
INSERT INTO measurements (compound, result_value) VALUES
  ('CCN(c1ncc2nc(C)n(CC#Cc3ccc(Cl)cc3-c3ccnc4c(C(=O)NS(=O)(=O)Cc5ccccn5)csc34)c(=O)c2c1C#N)C1CCN(C2COC2)CC1 [compound 1738]', 7.59),
  ('CCc1cc(-c2cc(Cl)ccc2OCCn2c(C)nc3cc(C(F)(F)F)c(N4CC5(C4)CN(C4CC4)C5)c(C#N)c3c2=O)c2scc(C(=O)O)c2n1 [compound 1931]', 7.71),
  ('CCc1cc(-c2cc(Cl)ccc2OCCn2c(C)nc3cc(C(F)(F)F)c(CC4CN(C)C4)c(C#N)c3c2=O)c2scc(C(=O)O)c2n1 [compound 1394]', 8.32),
  ('Cc1nc2cnc(N3CCC(N4CC(F)C4)CC3)c(C#N)c2c(=O)n1CC#Cc1ccc(Cl)cc1-c1ccnc2c(C(=O)O)csc12 [compound 1564]', 7.97),
  ('Cc1nc2cnc(N(C)C3COC3)c(C#N)c2c(=O)n1CC#Cc1ccc(Cl)cc1-c1ccnc2c(C(=O)O)csc12 [compound 1534]', 7.80);

We now examine a further compound.
// pIC50 lookup, compound = Cc1nc2cnc(N3CCC4(CC3)CN(CC(C)(F)F)C4)c(C#N)c2c(=O)n1CC#Cc1ccc(Cl)cc1-c1ccnc2c(C(=O)NS(=O)(=O)C3COC3)csc12 [compound 1411] , result: 7.76

====

Collected pIC50 values appear next to each entry.
# System tested: recombinant eIF4E (Homo sapiens (Human), UniProt P06730)
# Experiment: Fluorescence polarization competition assay for eIF4E binding potency
# Experimental setup: inhibition of eIF4E/EDA-m7GDP-ATTO-550 binding; calculated IC50 values, Table 4B; read-out: IC50
The quantity pIC50 is defined as the negative base-10 logarithm of the molar concentration.

Before answering, review these 3 worked examples.
INSERT INTO results (molecule, experimental_endpoint, result_value) VALUES
  ('Cc1nc2cnc(N3CC[N+](CCO)(C(F)F)CC3)c(C#N)c2c(=O)n1CC#Cc1ccc(Cl)cc1-c1ccnc2c(C(=O)O)csc12', 'pIC50', 7.84),
  ('CCc1cc(-c2cc(F)c(F)cc2OCCn2c(C)nc3cc(C(F)(F)F)c(N4CCN(C)CC4)c(C#N)c3c2=O)c2scc(C(=O)O)c2n1', 'pIC50', 7.59),
  ('Cc1nc2cnc(N3CCN(C(C)C(F)F)CC3)c(C#N)c2c(=O)n1CC#Cc1ccc(Cl)cc1-c1ccnc2c(C(=O)O)csc12 (stereo not drawn)', 'pIC50', 7.75);

Lab book: pIC50 of Cc1sc2c(-c3cc(Cl)ccc3OCCn3c(C)nc4c(C)nc(N5CCN(C)CC5)c(C#N)c4c3=O)ccnc2c1C(=O)O noted as 7.42

pIC50 measured on Cc1nc2cnc(CN)cc2c(=O)n1CCOc1ccc(Cl)cc1-c1cccc(C(=O)O)c1 = 6.39

Per the records, this molecule ( Cc1nc2cnc(C#CCN(C)CC(F)(F)F)c(C#N)c2c(=O)n1CCOc1ccc(Cl)cc1-c1ccnc2c(C(=O)O)csc12 ) has pIC50 equal to 7.71
